# Tested on: Trypanosoma cruzi
# Assay details: Antitrypanosomal activity against amastigotes form of Trypanosoma cruzi CA-I/72 infected in mouse C2C12 cells assessed as parasite infection level by DAPI staining based microscopic analysis
# Format: functional, organism-based
# Details: CA-I/72, C2C12
Quantity name: EC50 (nM)
Report the figure in nM without appending any unit label.

Known EC50 results, listed for orientation:
INSERT INTO assay_data (compound, measurement_target, obs_value) VALUES
  ('COC1=CC(=O)N(C(=O)/C=C/[C@@H](CCc2ccccc2)NC(=O)[C@H](CC(C)C)NC(=O)[C@H](CC(C)C)NC(=O)[C@H](C(C)C)N(C)C)C1Cc1ccc(-c2ccc3ccccc3c2)cc1 (stereo partly specified)', 'Trypanosoma cruzi', 59),
  ('COC1=CC(=O)N(C(=O)/C=C/[C@@H](CCc2ccccc2)NC(=O)[C@H](CC(C)C)NC(=O)[C@H](CC(C)C)NC(=O)[C@H](C(C)C)N(C)C)C1Cc1ccc(-c2ccc(OC)cc2)cc1 (stereo partly specified)', 'Trypanosoma cruzi', 19),
  ('COC1=CC(=O)N(C(=O)/C=C/[C@H](CCc2ccccc2)NC(=O)[C@H](CC(C)C)NC(=O)[C@H](CC(C)C)NC(=O)C2CCN(C)CC2)C1Cc1ccc(-c2ccc(OC)cc2)cc1 (stereo partly specified)', 'Trypanosoma cruzi', 261),
  ('COC1=CC(=O)N(C(=O)/C=C/[C@H](CCc2ccccc2)NC(=O)[C@H](CC(C)C)NC(=O)[C@H](CC(C)C)NC(=O)C2CCN(C)CC2)C1Cc1ccc(-c2ccccc2)cc1 (stereo partly specified)', 'Trypanosoma cruzi', 222),
  ('COC1=CC(=O)N(C(=O)/C=C/[C@@H](CCc2ccccc2)NC(=O)[C@H](CC(C)C)NC(=O)[C@H](CC(C)C)NC(=O)[C@H](C(C)C)N(C)C)C1Cc1ccc(-c2ccccc2)cc1 (stereo partly specified)', 'Trypanosoma cruzi', 13),
  ('COC1=CC(=O)N(C(=O)/C=C/[C@H](CCc2ccccc2)NC(=O)[C@H](CC(C)C)NC(=O)[C@H](CC(C)C)NC(=O)C2CCN(C)CC2)C1Cc1ccc(-c2ccc(C#N)cc2)cc1 (stereo partly specified)', 'Trypanosoma cruzi', 423),
  ('COC1=CC(=O)N(C(=O)/C=C/[C@@H](CCc2ccccc2)NC(=O)[C@H](CC(C)C)NC(=O)[C@H](CC(C)C)NC(=O)[C@H](C(C)C)N(C)C)C1Cc1ccc(-c2ccc(C(F)(F)F)cc2)cc1 (stereo partly specified)', 'Trypanosoma cruzi', 78),
  ('O=C(Cn1ccnc1[N+](=O)[O-])NCc1ccccc1', 'Trypanosoma cruzi', 1910),
  ('COC1=CC(=O)N(C(=O)/C=C/[C@@H](CCc2ccccc2)NC(=O)[C@H](CC(C)C)NC(=O)[C@H](CC(C)C)NC(=O)[C@H](C(C)C)N(C)C)C1Cc1ccc(-c2ccc(C#N)cc2)cc1 (stereo partly specified)', 'Trypanosoma cruzi', 19),
  ('COC1=CC(=O)N(C(=O)/C=C/[C@H](CCc2ccccc2)NC(=O)[C@H](CC(C)C)NC(=O)[C@H](CC(C)C)NC(=O)C2CCN(C)CC2)C1Cc1ccc(-c2ccc(C(F)(F)F)cc2)cc1 (stereo partly specified)', 'Trypanosoma cruzi', 420);

The compound COC1=CC(=O)N(C(=O)/C=C/[C@H](CCc2ccccc2)NC(=O)[C@H](CC(C)C)NC(=O)[C@H](CC(C)C)NC(=O)C2CCN(C)CC2)C1Cc1ccc(-c2ccc3ccccc3c2)cc1 (stereo partly specified) showed EC50 equal to 521
